The origin of these recorded values is ChEMBL document CHEMBL3885881.

species on record: Rattus norvegicus; assay: DrugMatrix - Regimen: Daily Repeat; type: toxicity, organism-based, Sprague-Dawley; design: regimen Daily Repeat, gender Male, age 6-8 weeks; settings: in vivo, po, 0 mg/kg, 120 h, tissue Plasma, route oral GAVAGE, dose level Control, time 5 day, vehicle 100 % WATER
We begin with a simple list: items and their reported CHOLESTEROL.
// units = mg/dL; emit number, no label

A selection of reference data follows.
CN(C)CCCN1c2ccccc2Sc2ccc(Cl)cc21 [CHLORPROMAZINE] | 70.67
COc1cc2nc(N3CCN(C(=O)C4COc5ccccc5O4)CC3)nc(N)c2cc1OC (stereo not given) [DOXAZOSIN] | 65.33
C[C@](N)(Cc1ccc(O)c(O)c1)C(=O)O [METHYLDOPA] | 71.33
N[C@@H](Cc1ccc(O)c(O)c1)C(=O)O [LEVODOPA] | 65.33

Now turn to the next molecule.
Query (molecule): C[C@H](CS)C(=O)N1CCC[C@H]1C(=O)O [CAPTOPRIL] ; field requested: CHOLESTEROL
67.83

###

organism: Rattus norvegicus; experiment: DrugMatrix - Regimen: Daily Repeat; type: toxicity, organism-based, Sprague-Dawley; design: regimen Daily Repeat, gender Male, age 6-8 weeks; conditions: in vivo, po, 0 mg/kg, […], tissue Plasma, route oral GAVAGE, dose level Control, time 14 day, vehicle .5 % CMC
We begin with a simple list: items and their reported TOTAL PROTEIN.
// units = G/DL; emit number, no label

A selection of reference data follows.
ClC(Cl)Br | 6.45
ClC(Br)Br | 6.45
CCOP(=S)(OCC)Oc1nc(Cl)c(Cl)cc1Cl | 6.57

Now turn to the next compound.
Query (compound): COc1ccc(C(=O)Nc2c(Cl)c[n+]([O-])cc2Cl)c2ccc(C(F)(F)F)nc12 ; field requested: TOTAL PROTEIN
6.62

###

species on record: Rattus norvegicus; assay: DrugMatrix - Regimen: Daily Repeat; format: toxicity, organism-based, Sprague-Dawley; parameters: regimen Daily Repeat, gender Male, age 6-8 weeks; details: in vivo, po, 0 mg/kg, 120 h, tissue Blood, route oral GAVAGE, dose level Control, time 5 day, vehicle 100 % WATER
quantity.name: ABSOLUTE EOSINOPHIL
Reply with the number and its unit after it.

Query (compound): N[C@@H](Cc1ccc(O)c(O)c1)C(=O)O ; field requested: ABSOLUTE EOSINOPHIL
26.67 CELLS/uL

###

organism: Rattus norvegicus; assay: DrugMatrix - Regimen: Daily Repeat; type: toxicity, organism-based, Sprague-Dawley; parameters: regimen Daily Repeat, gender Male, age 6-8 weeks; details: in vivo, po, 0 mg/kg, 120 h, tissue Plasma, route oral GAVAGE, dose level Control, time 5 day, vehicle 100 % WATER
We begin with a simple list: items and their reported TOTAL BILIRUBIN.
// units = mg/dL; emit number, no label

Nc1c2c(nc3ccccc13)CCCC2 | 0.72
c1ccc([C@H]2CN3CCSC3=N2)cc1 | 0.22
C[C@](N)(Cc1ccc(O)c(O)c1)C(=O)O | 0.2
Cc1onc(-c2ccccc2Cl)c1C(=O)N[C@@H]1C(=O)N2[C@@H]1SC(C)(C)[C@@H]2C(=O)O | 0.2
Cn1cc[nH]c1=S | 0.22
C[C@H](CS)C(=O)N1CCC[C@H]1C(=O)O | 0.22
C=CCC1(C(C)CCC)C(=O)NC(=O)NC1=O (stereo not given) | 0.13
CN(C)CCCN1c2ccccc2Sc2ccc(Cl)cc21 | 0.17

Query (molecule): C[C@H]1c2cccc(O)c2C(=O)C2=C(O)[C@]3(O)C(=O)C(C(N)=O)=C(O)[C@@H](N(C)C)[C@@H]3[C@@H](O)[C@@H]21.O ; field requested: TOTAL BILIRUBIN
0.17

Query (molecule): COc1cc2nc(N3CCN(C(=O)C4COc5ccccc5O4)CC3)nc(N)c2cc1OC (stereo not given) ; field requested: TOTAL BILIRUBIN
0.17

Query (molecule): Clc1cccc(Cl)c1N=C1NCCN1 ; field requested: TOTAL BILIRUBIN
0.18

Query (molecule): CNNCc1ccc(C(=O)NC(C)C)cc1 ; field requested: TOTAL BILIRUBIN
0.15

Query (molecule): NCCCCCC(=O)O ; field requested: TOTAL BILIRUBIN
0.2

Query (molecule): CC(O)CO (stereo not given) ; field requested: TOTAL BILIRUBIN
0.2

Query (molecule): N[C@@H](Cc1ccc(O)c(O)c1)C(=O)O ; field requested: TOTAL BILIRUBIN
0.17
